experimental-system: T1, 4H2732-AA
T1 chain: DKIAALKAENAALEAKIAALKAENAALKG
experiment-description: two-hybrid library CCmax;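 further: natural log of median RNA to DNA barcode read ratio; higher means stronger binding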
assay-conditions: mean of both orientations
Each record here notes measured interaction score.
Reply with the value as a number alone.

Worked cases, interaction score given:
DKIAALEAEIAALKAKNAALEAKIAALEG [4H2165-AA]; -1.36
DKIAALEAEIAALKAEIAALKAENAALKG [4H2124-AA]; -1.2
DENAALKAENAALKAKIAALEAKIAALEG [4H1765-AA]; -1.76
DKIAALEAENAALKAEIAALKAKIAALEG [4H2253-AA]; -1.3
DEIAALEAENAALKAKNAALKAEIAALEG [4H249-AA]; -0.302
DEIAALEAENAALEAKIAALKAKNAALEG [4H175-AA]; -0.776

So, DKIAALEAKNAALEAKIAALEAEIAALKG [4H2466-AA] ? Its interaction score was -1.42

So, DENAALKAKIAALEAENAALKAKIAALEG [4H1821-AA] ? Its interaction score was -1.04

So, DENAALKAKIAALEAKIAALEAENAALKG [4H1828-AA] ? Its interaction score was -1.51

So, DENAALKAKNAALEAEIAALKAEIAALKG [4H1930-AA] ? Its interaction score was -1.87

So, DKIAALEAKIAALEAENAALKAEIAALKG [4H2330-AA] ? Its interaction score was -1.45

So, DENAALKAEIAALKAEIAALKAKNAALEG [4H1615-AA] ? Its interaction score was -1.79

So, DKIAALKAEIAALEAENAALKAKNAALKG [4H2592-AA] ? Its interaction score was 0.248

So, DENAALKAEIAALKAKNAALEAEIAALKG [4H1650-AA] ? Its interaction score was -0.897

So, DKIAALEAKIAALEAKIAALEAKNAALEG [4H2343-AA] ? Its interaction score was -1.84
